Values were extracted from patent US11208404B2.

- Tested Target: ALCAT1 (Homo sapiens (Human))
- Procedure Details: In vitro acyltransferase assay for ALCAT1 inhibitors
- Type: biochemical
- Measurement Setup: 1 μM compound; in vitro enzymatic assay
- Sequence (Q6UWP7 whole entry): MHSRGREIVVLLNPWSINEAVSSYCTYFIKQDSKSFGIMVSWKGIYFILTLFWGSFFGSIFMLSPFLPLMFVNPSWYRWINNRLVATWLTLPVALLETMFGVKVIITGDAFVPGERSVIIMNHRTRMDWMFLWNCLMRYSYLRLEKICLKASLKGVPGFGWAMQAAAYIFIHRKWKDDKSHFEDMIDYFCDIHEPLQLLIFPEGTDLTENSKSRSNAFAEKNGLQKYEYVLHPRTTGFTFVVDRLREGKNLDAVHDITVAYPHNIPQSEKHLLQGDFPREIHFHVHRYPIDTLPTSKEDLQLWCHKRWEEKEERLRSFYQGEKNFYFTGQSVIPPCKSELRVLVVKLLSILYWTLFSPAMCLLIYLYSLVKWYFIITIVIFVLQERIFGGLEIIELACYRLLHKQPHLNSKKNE
Would you mind labelling by inhibition at 1 µM? At or over 80% is Condition met, under is Condition not met.

In: Quick check: does O=C(Nc1cccc(-c2nnc(-c3ccco3)o2)c1)c1ccco1 have inhibition at 1 µM greater than or equal to 80%?
Out: Condition not met

In: Quick check: does O=C(Nc1cccc(-c2nnc(-c3ccco3)s2)c1)c1ccccc1F have inhibition at 1 µM greater than or equal to 80%?
Out: Condition not met

In: Quick check: does COc1c(Cl)cccc1C(=O)Nc1cccc(-c2nnc(-c3ccco3)o2)c1 have inhibition at 1 µM greater than or equal to 80%?
Out: Condition met

In: Quick check: does COc1cccc(OC)c1C(=O)Nc1cccc(-c2nnc(-c3ccco3)o2)c1 have inhibition at 1 µM greater than or equal to 80%?
Out: Condition not met

###

- Tested Target: ALCAT1 (Homo sapiens (Human), UniProt Q6UWP7)
- Procedure Details: In vitro acyltransferase assay for ALCAT1 inhibitors
- Format: biochemical
- Measurement Setup: 1 μM compound; in vitro enzymatic assay
Recorded inhibition at 1 µM, one value per entry.
# output: bare number, implied unit %

Please review the entries below; each comes with its answer.
O=C(Nc1cccc(-c2nnc(-c3ccco3)o2)c1)C1CCCCC1 : 11
O=C(Nc1cccc(-c2nnc(-c3ncco3)o2)c1)c1ccccc1F : 7
O=C(Nc1cccc(-c2nnc(-c3ccco3)o2)c1)c1cccnc1 : 12
Nc1ccccc1C(=O)Nc1cccc(-c2nnc(-c3ccco3)o2)c1 : 37
O=C(Nc1cccc(-c2nnc(-c3ccco3)o2)c1)c1cccc2c1OCO2 : 27
CC(C)COc1ccccc1C(=O)Nc1cccc(-c2nnc(-c3ccco3)o2)c1 : 69
COC(=O)c1ccccc1C(=O)Nc1cccc(-c2nnc(-c3ccco3)o2)c1 : 16
O=C(Nc1cc(-c2nnc(-c3ccco3)o2)ccc1F)c1ccc2c(c1)COC2 : 12

In: // fetch inhibition at 1 µM for O=C(Nc1cc(-c2nnc(-c3ccco3)o2)ccc1F)c1ccccc1OC(F)F ; system: ALCAT1 (Homo sapiens (Human), UniProt Q6UWP7)
Out: 97

In: // fetch inhibition at 1 µM for COc1ccc(Cl)cc1C(=O)Nc1cc(-c2nnc(-c3ccco3)o2)ccc1F ; system: ALCAT1 (Homo sapiens (Human), UniProt Q6UWP7)
Out: 100

In: // fetch inhibition at 1 µM for COc1ccc(Br)cc1C(=O)Nc1cccc(-c2nnc(-c3ccco3)o2)c1 ; system: ALCAT1 (Homo sapiens (Human), UniProt Q6UWP7)
Out: 94

In: // fetch inhibition at 1 µM for O=C(Nc1cccc(-c2nnc(-c3ccno3)o2)c1)c1ccccc1F ; system: ALCAT1 (Homo sapiens (Human), UniProt Q6UWP7)
Out: 23

In: // fetch inhibition at 1 µM for O=C(Nc1cc(-c2nnc(-c3ccco3)o2)ccc1F)c1ccccc1OCC(F)(F)F ; system: ALCAT1 (Homo sapiens (Human), UniProt Q6UWP7)
Out: 94

###

Recorded inhibition at 3 µM, one value per entry.
- Tested Target: UniProtKB Q6UWP7
- Procedure Details: Cell-based assay for ALCAT inhibitor compounds (H9C2 cells)
- Measurement Setup: H9c2, 3 μM compound; H9C2 vector cell line and H9C2 with stable overexpression of ALCAT1
- Sequence (Q6UWP7 whole entry, species assumed): as the sequence (Q6UWP7 whole entry) above
# output: bare number, implied unit %

COc1ccc(C)cc1C(=O)Nc1cc(-c2nnc(-c3ccco3)o2)ccc1F : 31
CCCOc1ccc(F)cc1C(=O)Nc1cc(-c2nnc(-c3ccco3)o2)ccc1F : 24
Cc1ccc(OCC(F)F)c(C(=O)Nc2cc(-c3nnc(-c4ccco4)o3)ccc2F)c1 : 14
COc1c(Br)cc(Br)cc1C(=O)Nc1cccc(-c2nnc(-c3ccco3)o2)c1 : 27
COc1ccc(C(F)(F)F)cc1C(=O)Nc1cc(-c2nnc(-c3ccco3)o2)ccn1 : 45

In: // fetch inhibition at 3 µM for Cc1ccc(OCC(F)(F)F)c(C(=O)Nc2cc(-c3nnc(-c4ccco4)o3)ccc2F)c1 ; system: UniProtKB Q6UWP7
Out: 26

In: // fetch inhibition at 3 µM for O=C(Nc1cc(-c2nnc(-c3ccco3)o2)ccc1F)c1cc(F)ccc1OCC(F)F ; system: UniProtKB Q6UWP7
Out: 17

In: // fetch inhibition at 3 µM for CCCc1ccc(OC)c(C(=O)Nc2cc(-c3nnc(-c4ccco4)o3)ccc2F)c1 ; system: UniProtKB Q6UWP7
Out: 65
